system: MES-SA mCherry; test: fluorescent triple coculture cytotoxicity assay; assay type: cell-based, human; settings: MES-SA mCherry; coculture; 384-well plate; 144 h; read-out: IC50
Below: a set of entries, each annotated with reported pIC50.
Expect pIC50 as a plain number equal to -log10 of the molar concentration.

| molecule | readout.value |
| --- | --- |
| N.N.[Cl][Pt][Cl] [cisplatin] | 5.83 |
| Cc1ccc(C(C)C)cc1.[Cl-].[Cl-].[Ru+2].c1ccc(-c2ccnc3c2ccc2c(-c4ccccc4)ccnc23)cc1 | 6.28 |
| c1cnc2c(c1)ccc1cccnc12 | 5.53 |

## Input Hello, I am looking for reported pIC50 with MES-SA mCherry for Clc1ccnc2c1ccc1c(Cl)ccnc12 . Could you help?
## Output 5.52

## Input Hello, I am looking for reported pIC50 with MES-SA mCherry for Cc1ccc(C(C)C)cc1.Clc1ccnc2c1ccc1c(Cl)ccnc12.[Cl-].[Cl-].[Ru+2] . Could you help?
## Output 4.18

* * *

system: T47D; assay: PrestoBlue cytotoxicity assay; assay type: cell-based; details: Table S5
Below: a set of entries, each annotated with reported pIC50 (mean).

## Input Record request: pIC50 (mean) value, item Cc1ccc(C(C)C)cc1.[Cl-].[Cl-].[Ru+2].c1ccc(-c2ccnc3c2ccc2c(-c4ccccc4)ccnc23)cc1 [RuCymBP]
## Output 5.73

## Input Record request: pIC50 (mean) value, item Cc1c(C)c(C)[c-](C)c1C.Clc1ccnc2c1ccc1c(Cl)ccnc12.[Cl-].[Cl-].[Rh+3] [RhCp*DCP]
## Output 5.13

## Input Record request: pIC50 (mean) value, item N.N.[Cl][Pt][Cl] [cisplatin]
## Output 5.16

## Input Record request: pIC50 (mean) value, item Cc1ccc(C(C)C)cc1.Clc1ccnc2c1ccc1c(Cl)ccnc12.[Cl-].[Cl-].[Ru+2] [RuCymDCP]
## Output 4.13

* * *

test system: MES-SA/B1-mOrange; assay: fluorescent triple coculture cytotoxicity assay; assay type: cell-based, human; conditions: Homo sapiens; Mes-Sa/B1 mOrange; 384-well plate; Table S6; read-out: pIC50 (mean) (converted)
experimental.endpoint: IC50
Entry format: amount then unit.

The cases that follow already have their IC50 on record.
| molecule | IC50 |
| --- | --- |
| c1cnc2c(c1)ccc1cccnc12 | 1.38 µM |
| c1ccc(-c2ccnc3c2ccc2c(-c4ccccc4)ccnc23)cc1 | 0.138 µM |
| COc1cc([C@@H]2c3cc4c(cc3[C@@H](O[C@@H]3O[C@@H]5CO[C@@H](C)O[C@H]5[C@H](O)[C@H]3O)[C@H]3COC(=O)[C@H]23)OCO4)cc(OC)c1O [etoposide] | 1.17 µM |

Next molecule, IC50 to be filled in.
## Input Record request: IC50 value, item Clc1ccnc2c1ccc1c(Cl)ccnc12
## Output 4.9 µM

* * *

assay: n-octanol/water distribution coefficient, shake-flask; format: physicochemical; conditions: n-octanol/buffered aqueous solution; c(Cl–) = 100 mM; n-octanol/20 mM phosphate buffer, pH = 7.4; t = 25 °C
experimental.endpoint: logD at 4 h
No unit in the answer, only the number.

| structure.as.smiles | logD at 4 h |
| --- | --- |
| c1ccc(-c2ccnc3c2ccc2c(-c4ccccc4)ccnc23)cc1 | 3.69 |

Next compound, logD at 4 h to be filled in.
## Input Record request: logD at 4 h value, item Clc1ccnc2c1ccc1c(Cl)ccnc12
## Output 2.4

* * *

tested on: MES-SA/Dx5-eGFP; experiment: fluorescent triple coculture cytotoxicity assay; format: cell-based, human; conditions: MES-SA/Dx5-eGFP; coculture; 384-well plate; 144 h; read-out: IC50
Below: a set of entries, each annotated with reported IC50.
Field format: number, assumed µM, no unit text.

| molecule | IC50 [µM] |
| --- | --- |
| N.N.[Cl][Pt][Cl] [cisplatin] | 4.28 |
| Cc1c(C)c(C)[c-](C)c1C.Clc1ccnc2c1ccc1c(Cl)ccnc12.[Cl-].[Cl-].[Rh+3] | 0.75 |

Next molecule, IC50 to be filled in.
## Input Record request: IC50 value, item Cc1ccc(C(C)C)cc1.[Cl-].[Cl-].[Ru+2].c1ccc(-c2ccnc3c2ccc2c(-c4ccccc4)ccnc23)cc1
## Output 41

* * *

Below: a set of entries, each annotated with reported IC50.
tested on: MES-SA/B1-mOrange; assay: fluorescent triple coculture cytotoxicity assay; type: cell-based, human; details: MES-SA/B1-mOrange; coculture; 384-well plate; 144 h; read-out: IC50
Field format: number, assumed µM, no unit text.

The cases that follow already have their IC50 on record.
| molecule | target.or.test.system | experimental.endpoint | output.unit | readout.value |
| --- | --- | --- | --- | --- |
| N.N.[Cl][Pt][Cl] [cisplatin] | MES-SA/B1-mOrange | IC50 | µM | 1.71 |
| Cc1ccc(C(C)C)cc1.[Cl-].[Cl-].[Ru+2].c1ccc(-c2ccnc3c2ccc2c(-c4ccccc4)ccnc23)cc1 | MES-SA/B1-mOrange | IC50 | µM | 55 |

Next molecule, IC50 to be filled in.
## Input Record request: IC50 value, item Cc1c(C)c(C)[c-](C)c1C.Clc1ccnc2c1ccc1c(Cl)ccnc12.[Cl-].[Cl-].[Rh+3]
## Output 6.38

Each recorded value in this set is attributed to paper PMC12308784.
